Read-out: Cytochrome P450 3A4 (Homo sapiens)
PROTOCOL_SUMMARY: CLD_CYP3A4_24hr: CellzDirect (CLD) Gene Expression Assay for xenobiotic metabolism (CYP3A4) at 24 hours (AID 2283689)
Inconclusive results are not listed. Active and inactive are the calls of the source. Rule for the calls: active = hit-call score of the fitted dose curve at least 0.9, where 1 is the maximum; inconclusive = response in the unintended direction; inactive = score below 0.9.
Pick one and only one: active, inactive

Would you please look over these solved cases?
[[record]]
compound = "CNC(=O)Oc1ccccc1OC(C)C"
assigned_category = "active"

[[record]]
compound = "CCOC1Oc2ccc(OS(C)(=O)=O)cc2C1(C)C (configuration not stated)"
assigned_category = "active"

[[record]]
compound = "CNC(=O)Oc1cccc(N=CN(C)C)c1"
assigned_category = "inactive"

[[record]]
compound = "COP(=S)(OC)Oc1ccc([N+](=O)[O-])cc1"
assigned_category = "inactive"

[[record]]
compound = "CCC(C)Nc1c([N+](=O)[O-])cc(C(C)(C)C)cc1[N+](=O)[O-] (configuration not stated)"
assigned_category = "active"


Consider the record given below.
*Q* What classification did "O=S(=O)(O)C(F)(F)C(F)(F)C(F)(F)C(F)(F)C(F)(F)C(F)(F)C(F)(F)C(F)(F)F" end up with in this test?
*A* inactive

----------
Read-out: ABC Transporter (ABCB11), ABCB11 (gene 8647)
PROTOCOL_SUMMARY: CLD_ABCB11_48hr: CellzDirect (CLD) Gene Expression Assay for ABC Transporter (ABCB11) at 48 hours (AID 2283697)
Method: CLD_48hr is a cell-based, multiplexed-readout assay that uses hepatocyte, a human liver primary cell, with measurements taken at 48 hours after chemical dosing in a 96-well plate.CLD_ABCB11_48hr is one of 16 assay component(s) measured or calculated from the CLD_48hr assay. […] Furthermore, this assay endpoint can be referred to as a primary readout. […]
Inconclusive results are not listed. Active and inactive are the calls of the source. Rule for the calls: active = hit-call score of the fitted dose curve at least 0.9, where 1 is the maximum; inconclusive = response in the unintended direction; inactive = score below 0.9.
Result category, one only: T for active, F for inactive

Some entries whose results are on file:
[[record]]
molecule = "CCOCN(C(=O)CCl)c1c(C)cccc1CC"
assigned_category = "F"

[[record]]
molecule = "O=C(NC(=O)c1c(F)cccc1F)Nc1ccc(OC(F)(F)C(F)OC(F)(F)F)c(Cl)c1 (centres undefined)"
assigned_category = "F"

[[record]]
molecule = "CCCN(CCC)c1c([N+](=O)[O-])cc(C(F)(F)F)cc1[N+](=O)[O-]"
assigned_category = "F"


*Q* In this assay, the call recorded for "Clc1ccccc1-c1nnc(-c2ccccc2Cl)nn1" was what?
*A* F

*Q* GET /call?item= "COC(=O)c1ccccc1S(=O)(=O)NC(=O)N(C)c1nc(C)nc(OC)n1" returns the recorded outcome of this test.
*A* F

*Q* Give the logged outcome of this assay for the following molecule: "O=C(Nc1ccccc1)Nc1cnns1"
*A* F

*Q* For this molecule, state the assay outcome: "CCS(=O)(=O)c1cccnc1S(=O)(=O)NC(=O)Nc1nc(OC)cc(OC)n1"
*A* F

----------
TGT: CCAAT/enhancer-binding protein beta (Homo sapiens) (UniProt P17676)
Sequence (P17676 whole entry, looked up): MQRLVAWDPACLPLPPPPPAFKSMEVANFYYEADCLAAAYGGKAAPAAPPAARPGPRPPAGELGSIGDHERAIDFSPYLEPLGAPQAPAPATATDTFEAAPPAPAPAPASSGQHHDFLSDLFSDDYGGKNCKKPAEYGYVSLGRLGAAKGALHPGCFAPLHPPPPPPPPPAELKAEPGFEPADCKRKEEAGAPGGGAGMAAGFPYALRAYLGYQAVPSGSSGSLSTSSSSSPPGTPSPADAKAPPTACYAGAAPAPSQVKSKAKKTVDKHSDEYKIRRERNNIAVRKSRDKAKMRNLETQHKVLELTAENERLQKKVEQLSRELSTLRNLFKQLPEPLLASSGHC
PROTOCOL_SUMMARY: ATG_C_EBP_CIS: Attagene CIS-FACTORIAL HepG2 Assay for human CCAAT/Enhancer Binding Protein (C/EBP) beta (AID 2282927)
ASSAY_SETUP: HepG2 Attagene cis-factorial transcription factor reporter; actives raise or lower the signal
Activity calls are given as the source filed them. How the source made its calls: active means hit-call score of the fitted dose curve at least 0.9, where 1 is the maximum; inactive means score below 0.9.
PARAMETER: AC50

Before answering, review these 8 worked examples.
[[record]]
compound = "C#CCN1C(=O)COc2cc(F)c(N3C(=O)C4=C(CCCC4)C3=O)cc21"
parameter = "AC50"
result = "inactive"

[[record]]
compound = "CCc1ccc(C(=O)NN(C(=O)c2cc(C)cc(C)c2)C(C)(C)C)cc1"
parameter = "AC50"
result = "inactive"

[[record]]
compound = "CCOCN(C(=O)CCl)c1c(C)cccc1CC"
parameter = "AC50"
result = "inactive"

[[record]]
compound = "CCOC1Oc2ccc(OS(C)(=O)=O)cc2C1(C)C (configuration not stated)"
parameter = "AC50"
result = "14.5 µM (active)"

[[record]]
compound = "N#CN"
parameter = "AC50"
result = "inactive"

[[record]]
compound = "COC(=O)c1ccccc1S(=O)(=O)NC(=O)Nc1nc(C)nc(OC)n1"
parameter = "AC50"
result = "inactive"

[[record]]
compound = "CCC(C)(NC(=O)c1cc(Cl)c(C)c(Cl)c1)C(=O)CCl (configuration not stated)"
parameter = "AC50"
result = "inactive"

[[record]]
compound = "O=C(Nc1ccccc1)Nc1cnns1"
parameter = "AC50"
result = "inactive"


Please look at the items below and tell me AC50 for each one, in order.
1. C[C@H]1[C@H](c2ccc(Cl)cc2)SC(=O)N1C(=O)NC1CCCCC1
2. O=C1c2ccccc2C(=O)N1SC(Cl)(Cl)Cl
3. Clc1ccccc1-c1nnc(-c2ccccc2Cl)nn1
4. CNC(=O)Oc1cccc(N=CN(C)C)c1

*A*
1. inactive
2. inactive
3. inactive
4. 50 µM (active)
